SYSTEM UNDER TEST: ATP-dependent translocase ABCB1 (Homo sapiens, UniProt P08183)
Sequence (P08183 whole entry): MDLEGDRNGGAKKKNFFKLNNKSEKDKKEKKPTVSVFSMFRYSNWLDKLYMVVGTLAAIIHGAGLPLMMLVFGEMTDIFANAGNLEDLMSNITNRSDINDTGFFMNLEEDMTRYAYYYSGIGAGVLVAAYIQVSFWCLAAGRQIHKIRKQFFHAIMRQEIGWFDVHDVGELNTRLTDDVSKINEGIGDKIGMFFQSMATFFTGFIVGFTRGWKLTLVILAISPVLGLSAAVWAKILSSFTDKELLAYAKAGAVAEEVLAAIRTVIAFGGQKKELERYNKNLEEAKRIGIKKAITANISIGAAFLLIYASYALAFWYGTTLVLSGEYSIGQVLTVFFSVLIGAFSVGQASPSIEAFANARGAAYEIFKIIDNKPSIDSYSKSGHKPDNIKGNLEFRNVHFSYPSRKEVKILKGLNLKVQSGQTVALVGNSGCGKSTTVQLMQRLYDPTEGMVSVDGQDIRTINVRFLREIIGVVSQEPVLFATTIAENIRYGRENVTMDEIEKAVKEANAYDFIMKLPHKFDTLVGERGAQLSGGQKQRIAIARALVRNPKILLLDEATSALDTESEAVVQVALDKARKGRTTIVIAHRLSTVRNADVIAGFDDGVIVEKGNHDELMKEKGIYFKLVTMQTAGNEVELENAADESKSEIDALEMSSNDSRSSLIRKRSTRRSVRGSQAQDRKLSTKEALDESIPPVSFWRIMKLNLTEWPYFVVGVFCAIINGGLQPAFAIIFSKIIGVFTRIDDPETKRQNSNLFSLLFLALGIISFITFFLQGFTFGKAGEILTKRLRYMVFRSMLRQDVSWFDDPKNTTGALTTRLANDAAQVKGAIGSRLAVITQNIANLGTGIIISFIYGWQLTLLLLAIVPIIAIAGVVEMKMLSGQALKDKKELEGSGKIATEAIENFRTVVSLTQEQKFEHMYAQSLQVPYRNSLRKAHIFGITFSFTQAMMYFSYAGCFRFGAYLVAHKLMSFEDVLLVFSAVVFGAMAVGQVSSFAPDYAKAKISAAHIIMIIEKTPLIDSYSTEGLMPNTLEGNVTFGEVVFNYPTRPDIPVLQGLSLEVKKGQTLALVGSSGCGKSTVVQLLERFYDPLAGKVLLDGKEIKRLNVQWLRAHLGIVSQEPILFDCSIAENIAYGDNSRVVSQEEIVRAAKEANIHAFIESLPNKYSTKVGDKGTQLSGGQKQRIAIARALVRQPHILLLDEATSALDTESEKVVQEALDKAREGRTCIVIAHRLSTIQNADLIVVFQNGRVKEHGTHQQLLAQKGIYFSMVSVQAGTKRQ
PROTOCOL TEXT: Inhibition of P-gp-mediated paclitaxel-resistance in P-glycoprotein-expressing human LCC-6 cells assessed as fold decrease in paclitaxel IC50 for cytotoxic activity at 1 uM after 5 days by MTS assay relative to control
Assay type: cell-based
CONDITIONS: lcc-6, 120 h
MEASURED METRIC: fold change (FC)
Give the figure only, with no unit attached.

| COMPOUND STRUCTURE | fold change (FC) |
| --- | --- |
| COc1ccc(C2=C(c3ccc(OC)c(OC)c3)C(=O)N(CCCN3C(=O)C(c4ccc(OC)c(OC)c4)=C(c4ccc(OC)c(OC)c4)C3=O)C2=O)cc1OC | 5.2 |
| COc1ccc(C2=C(c3ccc(OC)c(OC)c3)C(=O)N(CN3C(=O)C(c4ccc(OC)c(OC)c4)=C(c4ccc(OC)c(OC)c4)C3=O)C2=O)cc1OC | 8 |

Note to self: fold change (FC) recorded for C/C=C/C[C@@H](C)C(=O)[C@H]1C(=O)N[C@@H](C(C)C)C(=O)N(C)CC(=O)N(C)[C@@H](CC(C)C)C(=O)N[C@@H](C(C)C)C(=O)N(C)[C@@H](CC(C)C)C(=O)N[C@@H](C)C(=O)N[C@H](C)C(=O)N(C)[C@@H](CC(C)C)C(=O)N(C)[C@@H](CC(C)C)C(=O)N(C)[C@@H](C(C)C)C(=O)N1C was 101.8
